# Tested on: Raji
# experiment description: Inhibition of 12-O-tetradecanoylphorbol-13-acetate-induced EBV-early antigen activation in human Raji cells assessed as early antigen induction at 100 molar ratio after 48 hrs by conventional indirect immunofluorescence technique relative to TPA
# Assay type: cell-based
# Parameters: scale not given: the % may be the effect or the level left
# test conditions: human gammaherpesvirus 4
Returns one of t or f; t when Activity is >= 80%.

# input smiles, category
records = [
    ("CCCCCC(=O)OCC(COC(=O)CCCCC)O[C@@H]1O[C@H](CS(=O)(=O)[O-])[C@@H](O)[C@H](O)[C@H]1O.[Na+]", "t"),
    ("CCCCCC(=O)OC[C@H](CO)O[C@@H]1O[C@H](COC(=O)CCCCC)[C@@H](O)[C@H](O)[C@H]1O", "f"),
    ("CCCCCCCCCCCCCCCCCC(=O)OCC(COC(=O)CCCCCCCCCCCCCCCCC)O[C@@H]1O[C@H](CS(=O)(=O)[O-])[C@@H](O)[C@H](O)[C@H]1O.[Na+]", "t"),
    ("CCCCCCCCCCCC(=O)OCC(COC(=O)CCCCCCCCCCC)O[C@@H]1O[C@H](CS(=O)(=O)[O-])[C@@H](O)[C@H](O)[C@H]1O.[Na+]", "t"),
    ("CCCCCCCCCCCCCCCCCC(=O)OCC(COC(=O)CCCCCCCCCCCCCCCCC)O[C@@H]1O[C@H](CO)[C@@H](O)[C@H](O)[C@H]1O", "t"),
]

Could you now look at the following compound, please?
# input Item CCCCCC(=O)OCC(COC(=O)CCCCC)O[C@@H]1O[C@H](CO)[C@@H](O)[C@H](O)[C@H]1O with Activity of 80% or above?
# output f
